Hey, just so you know, these numbers are from ChEMBL document CHEMBL1144557.

Test system: HeLa
Assay: Antiproliferative activity against human HeLa cells after 72 hrs by MTT assay
Format: functional, cell-based
pIC50: −log10 of the molar value.
Where pIC50 equals or exceeds 5, the correct label is true (1); where it does not, the label is false (0).

Query Smiles | Cat
C=Cc1cn(C/C=C2\OC(=O)C(O)=C2O)c(=O)[nH]c1=O | false (0)
O=C1O/C(=C\Cn2cc(/C=C/Br)c(=O)[nH]c2=O)C(OCc2ccccc2)=C1OCc1ccccc1 | false (0)
O=C1O/C(=C\Cn2cc(-c3cccs3)c(=O)[nH]c2=O)C(OCc2ccccc2)=C1OCc1ccccc1 | false (0)
O=C1O/C(=C\Cn2cc(C#Cc3ccccc3)c(=O)[nH]c2=O)C(O)=C1O | true (1)
C#Cc1cn(C/C=C2\OC(=O)C(OCc3ccccc3)=C2OCc2ccccc2)c(=O)[nH]c1=O | true (1)
CC(C)=CCc1cn(C/C=C2\OC(=O)C(OCc3ccccc3)=C2OCc2ccccc2)c(=O)[nH]c1=O | true (1)
O=C1O/C(=C\Cn2cc(-c3ccc(Cl)o3)c(=O)[nH]c2=O)C(OCc2ccccc2)=C1OCc1ccccc1 | false (0)
C=C=Cc1cn(C/C=C2\OC(=O)C(OCc3ccccc3)=C2OCc2ccccc2)c(=O)[nH]c1=O | false (0)
O=C1O/C(=C\Cn2cc(-c3ccccc3)c(=O)[nH]c2=O)C(O)=C1O | false (0)
O=C1O/C(=C\Cn2cc(-c3ccc(Br)o3)c(=O)[nH]c2=O)C(OCc2ccccc2)=C1OCc1ccccc1 | false (0)
C=Cc1cn(C/C=C2\OC(=O)C(OCc3ccccc3)=C2OCc2ccccc2)c(=O)[nH]c1=O | false (0)

###

Recorded pIC50 values for a group of molecules are listed next.
System: L1210
Experiment: Antiproliferative activity against mouse L1210 cells
Format: functional, cell-based
pIC50: −log10 of the molar value.
Measured Parameter: pIC50

Query Smiles | Value Relation Sign | Value Reported
O=C1O/C(=C(\Br)Cn2c(Br)c(/C=C/Br)c(=O)[nH]c2=O)C(OCc2ccccc2)=C1OCc1ccccc1 | = | 4.49
O=C1O/C(=C\Cn2cc(-c3ccco3)c(=O)[nH]c2=O)C(O)=C1O | ≤ | 3.30
C=C=Cc1cn(C/C=C2\OC(=O)C(OCc3ccccc3)=C2OCc2ccccc2)c(=O)[nH]c1=O | < | 3.60
O=C1O/C(=C\Cn2cc(-c3ccc(Cl)o3)c(=O)[nH]c2=O)C(OCc2ccccc2)=C1OCc1ccccc1 | = | 3.78

###

Reported values of MCC for individual entries
Experiment: Cytotoxicity against E6SM cells
Format: cell-based
Conditions: human, read-out: MIC
Measured Parameter: MCC

Query Smiles | Measured Parameter | Value Reported
O=c1[nH]c(=O)n([C@H]2C[C@H](O)[C@@H](CO)O2)cc1/C=C/Br | MCC | > 500 µM
Nc1nc2c(ncn2COCCO)c(=O)[nH]1 | MCC | > 500 µM
NC(=O)c1ncn([C@@H]2O[C@H](CO)[C@@H](O)[C@H]2O)n1 | MCC | > 500 µM
Nc1nc2c(ncn2COC(CO)CO)c(=O)[nH]1 | MCC | > 100 µM

###

Each item that follows carries a reported IC50.
System: L1210
Experiment: Antiproliferative activity against mouse L1210 cells
Assay type: functional, cell-based
Measured Parameter: IC50

Query Smiles | Measured Parameter | Value Reported
C#Cc1cn(C/C=C2\OC(=O)C(O)=C2O)c(=O)[nH]c1=O | IC50 | 15 µM
C=CCc1cn(C/C=C2\OC(=O)C(OCc3ccccc3)=C2OCc2ccccc2)c(=O)[nH]c1=O | IC50 | 20 µM
O=C1O/C(=C\Cn2cc(-c3cccs3)c(=O)[nH]c2=O)C(O)=C1O | IC50 | > 500 µM
C=Cc1cn(C/C=C2\OC(=O)C(OCc3ccccc3)=C2OCc2ccccc2)c(=O)[nH]c1=O | IC50 | 7.2 µM
CC(C)=CCc1cn(C/C=C2\OC(=O)C(OCc3ccccc3)=C2OCc2ccccc2)c(=O)[nH]c1=O | IC50 | 8.2 µM

###

Assay: Cytotoxicity against E6SM cells
Assay type: cell-based
Conditions: human, read-out: MCC
The label depends only on MCC: 1 if it is at least 300 µM, 0 if it is smaller.

Query Smiles | Cat
C=Cc1cn(C/C=C2\OC(=O)C(O)=C2O)c(=O)[nH]c1=O | 1
O=C1O/C(=C\Cn2cc(-c3ccc(Br)o3)c(=O)[nH]c2=O)C(OCc2ccccc2)=C1OCc1ccccc1 | 1
CC#Cc1cn(C/C=C2\OC(=O)C(OCc3ccccc3)=C2OCc2ccccc2)c(=O)[nH]c1=O | 0
C=CCc1cn(C/C=C2\OC(=O)C(OCc3ccccc3)=C2OCc2ccccc2)c(=O)[nH]c1=O | 0
O=C1O/C(=C\Cn2cc(C#Cc3ccccc3)c(=O)[nH]c2=O)C(OCc2ccccc2)=C1OCc1ccccc1 | 0
O=C1O/C(=C\Cn2cc(-c3ccco3)c(=O)[nH]c2=O)C(OCc2ccccc2)=C1OCc1ccccc1 | 0
O=C1O/C(=C\Cn2cc(-c3cccs3)c(=O)[nH]c2=O)C(OCc2ccccc2)=C1OCc1ccccc1 | 1
O=C1O/C(=C(\Br)Cn2c(Br)c(/C=C/Br)c(=O)[nH]c2=O)C(OCc2ccccc2)=C1OCc1ccccc1 | 1
C=C=Cc1cn(C/C=C2\OC(=O)C(OCc3ccccc3)=C2OCc2ccccc2)c(=O)[nH]c1=O | 0
O=C1O/C(=C\Cn2cc(/C=C/Br)c(=O)[nH]c2=O)C(OCc2ccccc2)=C1OCc1ccccc1 | 1
O=C1O/C(=C\Cn2cc(-c3ccccc3)c(=O)[nH]c2=O)C(OCc2ccccc2)=C1OCc1ccccc1 | 1
O=C1O/C(=C\Cn2cc(-c3ccc(Cl)o3)c(=O)[nH]c2=O)C(OCc2ccccc2)=C1OCc1ccccc1 | 1

###

System: HEp-2
Assay: Antiproliferative activity against human Hep2 cells after 72 hrs by MTT assay
Type: functional, cell-based
Conditions: HEp-2, 72 h
Measured Parameter: IC50 (µM)

Query Smiles | Unit Spec | Value Relation Sign | Value Reported
O=C1O/C(=C\Cn2cc(/C=C/Br)c(=O)[nH]c2=O)C(OCc2ccccc2)=C1OCc1ccccc1 | µM | = | 40
CC#Cc1cn(C/C=C2\OC(=O)C(OCc3ccccc3)=C2OCc2ccccc2)c(=O)[nH]c1=O | µM | = | 0.7
O=C1O/C(=C(\Br)Cn2c(Br)c(/C=C/Br)c(=O)[nH]c2=O)C(OCc2ccccc2)=C1OCc1ccccc1 | µM | = | 22
O=C1O/C(=C\Cn2cc(-c3ccccc3)c(=O)[nH]c2=O)C(OCc2ccccc2)=C1OCc1ccccc1 | µM | = | 22
C=Cc1cn(C/C=C2\OC(=O)C(O)=C2O)c(=O)[nH]c1=O | µM | = | 46
O=C1O/C(=C\Cn2cc(-c3ccccc3)c(=O)[nH]c2=O)C(O)=C1O | µM | > | 100
C=C=Cc1cn(C/C=C2\OC(=O)C(OCc3ccccc3)=C2OCc2ccccc2)c(=O)[nH]c1=O | µM | > | 100
O=C1O/C(=C\Cn2cc(-c3cccs3)c(=O)[nH]c2=O)C(OCc2ccccc2)=C1OCc1ccccc1 | µM | = | 18
O=C1O/C(=C\Cn2cc(C#Cc3ccccc3)c(=O)[nH]c2=O)C(O)=C1O | µM | = | 3
O=C1O/C(=C\Cn2cc(-c3ccco3)c(=O)[nH]c2=O)C(O)=C1O | µM | > | 100
O=C1O/C(=C\Cn2cc(C#Cc3ccccc3)c(=O)[nH]c2=O)C(OCc2ccccc2)=C1OCc1ccccc1 | µM | > | 100
O=C1O/C(=C\Cn2cc(-c3ccc(Cl)o3)c(=O)[nH]c2=O)C(OCc2ccccc2)=C1OCc1ccccc1 | µM | > | 100
O=C1O/C(=C\Cn2cc(-c3ccco3)c(=O)[nH]c2=O)C(OCc2ccccc2)=C1OCc1ccccc1 | µM | = | 2.2
C=CCc1cn(C/C=C2\OC(=O)C(OCc3ccccc3)=C2OCc2ccccc2)c(=O)[nH]c1=O | µM | = | 4.7
C#Cc1cn(C/C=C2\OC(=O)C(O)=C2O)c(=O)[nH]c1=O | µM | = | 12
O=C1O/C(=C\Cn2cc(-c3ccc(Br)o3)c(=O)[nH]c2=O)C(OCc2ccccc2)=C1OCc1ccccc1 | µM | = | 28
O=C1O/C(=C\Cn2cc(-c3cccs3)c(=O)[nH]c2=O)C(O)=C1O | µM | > | 100
CC(C)=CCc1cn(C/C=C2\OC(=O)C(OCc3ccccc3)=C2OCc2ccccc2)c(=O)[nH]c1=O | µM | = | 2.6
C#Cc1cn(C/C=C2\OC(=O)C(OCc3ccccc3)=C2OCc2ccccc2)c(=O)[nH]c1=O | µM | = | 4.6
C=Cc1cn(C/C=C2\OC(=O)C(OCc3ccccc3)=C2OCc2ccccc2)c(=O)[nH]c1=O | µM | = | 14.2
